- Method Summary: Acute toxicity in rats
- Particulars: rat, in vivo, po, one week-observation
Result Type: LD50 at 168 h (mg/kg)

In [3]: df
Out[3]:
                                   molecule    result_type  result_units  observed_result
0  c1csc(Cc2ccccc2OCC2CNCCO2)c1 (stereo not shown) [Compound A]  LD50 at 168 h         mg/kg             1710

###

- Method Summary: Acute toxicity in mice
- Particulars: mouse, in vivo, po, one week-observation
Result Type: LD50 at 168 h

                                   compound  observed_result
0  c1csc(Cc2ccccc2OCC2CNCCO2)c1 (stereo not shown)        716 mg/kg

Each recorded value in this set is attributed to patent EP0193637A1.
